Measured Hydrolysis of enol ethers, percent remaining, 2 d of individual entries
Experiment: Acid-catalyzed hydrolysis of enol ethers in THF/1 M HCl
Type: physicochemical
Details: THF/1M HCl (80:20 v/v), room temperature, 2 d
Procedure: The acid-catalyzed hydrolysis of Compounds 1, 2, 3 and 25 were measured and compared to the hydrolysis of enol ethers report in WO2019243501. Each enol ether was dissolved in a 4:1 THF/1 M HCl mixture and the percent remaining over time measured relative to an internal standard. Into a 15 mL vial were added 125 mg of enol ether, 60 mg of hexadecane and 10 mL of THE (purged with N2 and containing 2500 ppm of BHT). […] The vials were stored at room temperature until analyzed. […]
Give a bare numeral; the unit % is implied.

# annotated cases, reported Hydrolysis of enol ethers, percent remaining, 2 d shown
[
  {
    "molecule": "CCCCCC(CC)OC=Cc1ccccc1 (stereo not shown) [(2-(octan-3-yloxy)vinyl)benzene, reference compound]",
    "testValue": 72.0
  },
  {
    "molecule": "CC/C=C\\CCOC=Cc1ccc(OC)cc1 [reference compound]",
    "testValue": 80.2
  },
  {
    "molecule": "CCCCCCCCCCCC=COCCc1ccccc1",
    "testValue": 0
  },
  {
    "molecule": "C(=Cc1ccccc1)OCCc1ccccc1 [(2-phenethoxyvinyl)benzene, reference compound]",
    "testValue": 90
  }
]

Request: Item CCCCCCCCCCC=COCCc1ccccc1 has what recorded Hydrolysis of enol ethers, percent remaining, 2 d?
Response: 0

Request: Item CCCCCCCCCC(C)C=COCCc1ccccc1 (stereo not shown) has what recorded Hydrolysis of enol ethers, percent remaining, 2 d?
Response: 0

Request: Item C=CCCCCCCCC=COCCc1ccccc1 has what recorded Hydrolysis of enol ethers, percent remaining, 2 d?
Response: 0
